Tested on: CHO cells
PROCEDURE DETAILS: Ant44 rescue assay in CHO cells (Assay 1)
Type: cell-based, Chinese hamster
TEST CONDITIONS: Cricetulus griseus, CHO; Table 7; read-out: SAR IC50 Ant44 assay
Hi there, I'd appreciate the recorded IC50 for every entry that follows.
Give bare numbers, in µM.

Worked examples follow.
So for COc1ccccc1C(=O)Nc1ccc(N2CCN(c3cccc(C)c3C)CC2)cc1C(=O)O , the logged IC50 turned out to be 2

So for COc1ccccc1C(=O)Nc1ccc(N2CCC(Oc3ccccc3)CC2)cc1C(=O)O , the logged IC50 turned out to be 32

So for COc1ccccc1C(=O)Nc1ccc(N2CCN(c3ccccn3)CC2)cc1C(=O)O , the logged IC50 turned out to be 4

So for Cc1ccc(CC(=O)Nc2ccc(N3CCN(c4ccccc4Cl)CC3)cc2C(=O)O)cc1 , the logged IC50 turned out to be 16

So for COc1ccccc1C(=O)Nc1ccc(N2CCN(c3cc(Cl)ccc3C)CC2)cc1C(=O)O , the logged IC50 turned out to be 2

So for COc1ccc(C(=O)Nc2ccc(N3CCN(c4ccccc4OC)CC3)cc2C(=O)O)cc1 , the logged IC50 turned out to be 9

So for COc1ccc(C(=O)Nc2ccc(N3CCCN(c4ncccn4)CC3)cc2C(=O)O)cc1 , the logged IC50 turned out to be 12

Okay, now this compound:
So for COc1ccccc1N1CCN(c2ccc(NC(=O)c3ccccc3Cl)c(C(=O)O)c2)CC1 , the logged IC50 turned out to be 16

* * *

PROCEDURE DETAILS: Solubility
Assay type: physicochemical
TEST CONDITIONS: PBS, pH 6.2, aqueous buffer
METRIC NAME: solubility (µg/mL)
Give bare numbers, in µg/mL.

So for COc1ccc(C(=O)Nc2ccc(N3CCN(c4ccccc4OC)CC3)cc2C(=O)O)cc1 , the logged solubility turned out to be 0.1

* * *

Hi there, I'd appreciate the recorded MTD for every entry that follows.
System: L3.6pl cells
PROCEDURE DETAILS: cells
Type: cell-based
TEST CONDITIONS: Table 9
Numbers only, in µM.

Worked examples follow.
So for O=C(Nc1ccc(N2CCC(Oc3ccccc3)CC2)cc1C(=O)O)c1ccc(-c2ccc(Cl)cc2)o1 , the logged MTD turned out to be 1

So for O=C(Nc1ccc(N2CCC(Oc3ccccc3)CC2)cc1C(=O)O)c1cc2ccccc2o1 , the logged MTD turned out to be 10

So for Cl.O=C(Nc1ccc(N2CCNCC2)cc1C(=O)O)c1ccco1 , the logged MTD turned out to be 40

So for O=C(Nc1ccc(N2CCC(Oc3ccccc3)CC2)cc1C(=O)O)c1cc2ccccc2[nH]1 , the logged MTD turned out to be 10

So for COc1ccc(C(=O)Nc2ccc(N3CCN(c4cc(Cl)ccc4C)CC3)cc2C(=O)O)cc1 [drawing 134] , the logged MTD turned out to be 8

Okay, now this compound:
So for O=C(Nc1ccc(N2CCC(Oc3ccccc3)CC2)cc1C(=O)O)c1cccnc1 , the logged MTD turned out to be 10

* * *

System: L3.6pl cells
PROCEDURE DETAILS: DFMO/Spd rescue assay in L3.6pl cells
Type: cell-based, human
TEST CONDITIONS: Table 4B; DFMO-spermidine rescue
METRIC NAME: EC50

So for COc1ccccc1C(=O)Nc1ccc(N2CCN(Cc3ccccn3)CC2)cc1C(=O)O , the logged EC50 turned out to be > 10 µM

* * *

PROCEDURE DETAILS: Solubility
Format: physicochemical
TEST CONDITIONS: PBS, pH 7.4, aqueous buffer
METRIC NAME: solubility

So for COc1ccc(C(=O)Nc2ccc(N3CCN(c4ccccc4OC)CC3)cc2C(=O)O)cc1 [SBI-0800678] , the logged solubility turned out to be > 0.1 µg/mL

* * *

Test system: CHO cells
PROCEDURE DETAILS: Cytotoxicity screen in CHO cells
TEST CONDITIONS: toxic above the stated concentration; CHO cells; listed with Ant44 assay
METRIC NAME: Tox (Ant44)

Worked examples follow.
So for COc1ccccc1C(=O)Nc1ccc(N2CCN(c3ccccn3)CC2)cc1C(=O)O [SBI-0801308] , the logged Tox (Ant44) turned out to be > 31 µM

So for COc1ccc(C(=O)Nc2ccc(N3CCN(c4ccc(C(C)=O)cc4)CC3)cc2C(=O)O)cc1 [SBI-0800674] , the logged Tox (Ant44) turned out to be > 5 µM

More entries:
So for COc1ccc(C(=O)Nc2ccc(N3CCN(c4ccc(OC)cc4)CC3)cc2C(=O)O)cc1 [SBI-0800680] , the logged Tox (Ant44) turned out to be ~5 µM

* * *

Hi there, I'd appreciate the recorded tox (DFMO Assay) for every entry that follows.
System: CHO cells
PROCEDURE DETAILS: Cytotoxicity screen in CHO cells
TEST CONDITIONS: toxic above the stated concentration; CHO cells; listed with DFMO assay

Worked examples follow.
So for COc1ccccc1C(=O)Nc1ccc(N2CCN(c3ccccn3)CC2)cc1C(=O)O [SBI-0801308] , the logged tox (DFMO Assay) turned out to be > 20 µM

So for Cc1ccc(C(=O)Nc2ccc(N3CCN(c4cc(Cl)ccc4C)CC3)c(C(=O)O)c2)cc1 [SBI-0800669] , the logged tox (DFMO Assay) turned out to be > 10 µM

So for COc1ccc(C(=O)Nc2ccc(N3CCN(c4ccc(C(C)=O)cc4)CC3)cc2C(=O)O)cc1 [SBI-0800674] , the logged tox (DFMO Assay) turned out to be > 10 µM

So for COc1ccc(C(=O)Nc2ccc(N3CCN(c4ccccc4OC)CC3)cc2C(=O)O)cc1 [SBI-0800678] , the logged tox (DFMO Assay) turned out to be > 15 µM

Okay, now this compound:
So for COc1ccc(C(=O)Nc2ccc(N3CCN(c4ccccc4Cl)CC3)cc2C(=O)O)cc1 [SBI-0800682] , the logged tox (DFMO Assay) turned out to be > 10 µM

* * *

Test system: CHO cells
PROCEDURE DETAILS: Cytotoxicity screen in CHO cells
TEST CONDITIONS: hamster
METRIC NAME: CHO MTD (µM)
Answers are plain numbers, in µM.

Log: CHO cells, molecule COc1ccc(C(=O)Nc2ccc(N3CCN(c4ccccc4)CC3)cc2C(=O)O)cc1 , CHO MTD = 10

Okay, now this molecule:
Log: CHO cells, molecule CCOc1ccccc1N1CCN(c2ccc(NC(=O)c3ccc(OC)cc3)c(C(=O)O)c2)CC1 , CHO MTD = 20

* * *

System: CHO cells
PROCEDURE DETAILS: Cytotoxicity screen in CHO cells
TEST CONDITIONS: Chinese hamster, CHO K1 cells
Hi there, I'd appreciate the recorded IC50 at 48 h for every entry that follows.

Worked examples follow.
Log: CHO cells, compound COC(=O)c1cc(N2CCN(c3cc(Cl)ccc3C)CC2)ccc1NC(=O)c1ccc(OC)cc1 , IC50 at 48 h = > 40 µM

Log: CHO cells, compound COc1ccc(C(=O)Nc2ccc(N3CCN(c4cc(Cl)ccc4C)CC3)cc2C(=O)O)c(OC)c1 , IC50 at 48 h = > 40 µM

Log: CHO cells, compound CCN(CC)C(=O)CN1CCN(c2ccc(NC(=O)c3ccc(OC)cc3)c(C(=O)O)c2)CC1 , IC50 at 48 h = 28 µM

Log: CHO cells, compound Cc1cccc(N2CCN(c3ccc(NC(=O)c4ccccc4F)cc3C(=O)O)CC2C)c1 (centres unmarked) , IC50 at 48 h = > 40 µM

Log: CHO cells, compound COc1ccccc1C(=O)Nc1ccc(N2CCN(c3ccccn3)CC2)cc1C(=O)O , IC50 at 48 h = 21 µM

Log: CHO cells, compound COc1ccc(C(=O)Nc2ccc(N3CCN(c4cc(Cl)ccc4C)CC3)cc2C(=O)O)cc1 , IC50 at 48 h = 13 µM

// each compound listed below needs its IC50 at 48 h
1. COc1ccc(C(=O)Nc2ccc(N3CCN(c4cc(Cl)ccc4C)CC3)c(C(=O)O)c2)cc1
2. COc1ccccc1C(=O)Nc1ccc(N2CCN(Cc3ccccc3)CC2)cc1C(=O)O
3. COc1ccc(C(=O)Nc2ccc(N3CCC(N4CCCCC4)CC3)cc2C(=O)O)cc1

**A:**
1: 14 µM; 2: > 40 µM; 3: > 40 µM

* * *

Tested on: CHO cells
PROCEDURE DETAILS: Cytotoxicity screen in CHO cells
TEST CONDITIONS: toxic above the stated concentration; CHO cells; listed with DFMO assay
METRIC NAME: tox (DFMO Assay)

So for COc1ccc(C(=O)Nc2ccc(N3CCN(c4ccccc4)CC3)cc2C(=O)O)cc1 , the logged tox (DFMO Assay) turned out to be > 15 µM

More entries:
So for COc1ccc(CC(=O)Nc2ccc(N3CCN(c4cc(Cl)ccc4C)CC3)cc2C(=O)O)cc1 , the logged tox (DFMO Assay) turned out to be > 20 µM
